Values from ChEMBL document CHEMBL1201861

Give IC50 for every item shown.
- Tested on: HT1197
- EXPERIMENT SUMMARY: cells
- Format: functional, cell-based, HT-1197
- SETTINGS: Homo sapiens
- Description: SANGER: Inhibition of human HT-1197 cell growth in a cell viability assay.

CC(C)=CC[C@@H](O)C1=CC(=O)c2c(O)ccc(O)c2C1=O : 276 nM
N#C/C(=C1/Nc2ccccc2S1)c1ccnc(NCCc2cccnc2)n1 : > 8000 nM

# evaluate next
Note to self: IC50 recorded for C[C@]1(c2nc3c(C(N)=O)cccc3[nH]2)CCCN1 was > 5000 nM

====

- System: CAL-120;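 further: cell growth inhibition, read out as cell viability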
- EXPERIMENT SUMMARY: cells
- Type: functional, cell-based
- SETTINGS: Homo sapiens
- Description: SANGER: Inhibition of human CAL-120 cell growth in a cell viability assay.
Give pIC50 for every item shown.
Numbers only, as −log10 of the molar value.

CCNC(=O)c1noc(-c2cc(C(C)C)c(O)cc2O)c1-c1ccc(CN2CCOCC2)cc1 : 7.37

# evaluate next
Note to self: pIC50 recorded for C[C@]12O[C@H](C[C@]1(O)CO)n1c3ccccc3c3c4c(c5c6ccccc6n2c5c31)CNC4=O was 6.47
